assay: qHTS for Agonist of gsp, the Etiologic Mutation Responsible for Fibrous Dysplasia/McCune-Albright Syndrome: qHTS; settings: gsp mutant cells, cAMP HTRF, 30 min; series mostly up to 76.9 µM; note: nearly all actives have a fitted effect of over 60% in size
Among all 340,000 compounds or so, about 420 (0.12%) were called active. Not shown: some 10% with an inconclusive outcome. Calls come from the whole dose curve; as a rule, active = well fitted activation curve with a large enough effect; inconclusive = small, poorly fitted or top-dose-only effect, or another doubt; inactive = no such curve, though single readings can be large or run the other way; cell line not stated here. Shown is part of a subset that was picked to be rich in actives.
Outcomes: active, inactive

compound	answer-label
Cc1cc(Cl)ccc1C(=O)C1CCCN(C(=O)c2ccc3c(c2)OCO3)C1 (configuration not stated)	inactive
CNc1nc(-c2ccccc2)cc(-c2ccccc2)n1	inactive
COC(=O)C(C)Sc1ccc2nnc(-c3cccc(F)c3)n2n1 (configuration not stated)	active
COc1cccc(/C=C2\SC(=S)N(CCCC(=O)N3CCOCC3)C2=O)c1	inactive
CC1=C(C(=O)Nc2cccc(C(=O)NCC(C)c3ccccc3)c2)SCCO1 (configuration not stated)	inactive
CC1=C(C(=O)N(C)C)CC(CC(=O)NCCN2CCOCC2)C(=O)N1Cc1ccccc1 (configuration not stated)	inactive
CCN(CC)C(=O)C1=C(C)N(Cc2ccc(OC)cc2)C(=O)C(CC(=O)NCCCCc2ccccc2)C1 (configuration not stated)	inactive
NC(CSC(c1ccccc1)(c1ccccc1)c1ccc(-c2ccccc2)cc1)C(=O)O (configuration not stated)	inactive
Cc1ccc(NC(=O)Cn2sc3ccccc3c2=O)cc1	inactive
CCCCN(C(C)=O)c1ccc2c(c1)C1CC2CCN1Cc1ccccc1 (configuration not stated)	inactive
CC1CC(NC(=S)N(C)C)CC(C)(C)C1 (configuration not stated)	inactive
c1ccc(Cn2nnc3c(NCC4CC4)ncnc32)cc1	inactive
CC1(C)NC(=O)N(CC(=O)Nc2ccc(-c3ccccc3)cc2)C1=O	inactive
CC1=C(C(=O)N2CCOCC2)CC(CC(=O)NCC2CCCCC2)C(=O)N1Cc1ccc(F)cc1 (configuration not stated)	inactive
O=C(O)C1=C(C(=O)O)C2CCC1C2	inactive
O=S1(=O)CCN(C2CCCCCCCCCCC2)CC1	inactive
CS(=O)(=O)c1sc2nc(-c3ccccc3)cc(-c3ccccc3)c2c1N	active
CCc1ccccc1OCC(=O)Nc1nnc(C2CC2)s1	inactive
O=C(Cc1ccc([N+](=O)[O-])cc1)NCCS(=O)(=O)N1CCN(c2ccccc2)CC1	inactive
Cc1onc(-c2ccccc2)c1-c1nnc(COC(=O)c2ccc(N(C)C)cc2)o1	inactive
CCCCCCN1C[C@@H](O)[C@H](n2cc(COC(=O)c3ccccc3)nn2)C[C@@H]1c1ccc(Cl)cc1	inactive
N#CCCC(C#N)(c1cccnc1)N1CCOCC1 (configuration not stated)	inactive
CCOc1ccc(-c2nnc3ccc(SC)nn23)cc1	inactive
Cc1cccc(C(=O)NC2CCN(CC(=O)Nc3cccc(Cl)c3)CC2)c1	inactive
CCCc1nc(SCC(=O)N2CCCC2)c2c(=O)n(C)c(=O)n(C)c2n1	inactive
COc1ccc(S(=O)(=O)N2CCN(CC(=O)N3CCNC3=O)CC2)cc1OC	inactive
CNC(=O)C1CN(C(=O)c2cccc(S(=O)(=O)N3CCc4ccccc43)c2)c2ccccc2O1 (configuration not stated)	inactive
COc1ccc([C@H]2N[C@]3(CCCN(CC4CCCCC4)C3=O)[C@H]3C(=O)N(C)C(=O)[C@@H]23)cc1	inactive
Cc1ccc(Cc2c(-c3ccc(C)cc3)nc3c4ccccc4ccn23)cc1	inactive
COc1ccc(S(=O)(=O)N(C)C)cc1NC(=O)COC(=O)c1n[nH]c2ccccc12	inactive
COc1ccc(/C=C2\SC(=S)N(CCC(=O)N3CCOCC3)C2=O)cc1OC	inactive
O=C(c1ccc(CS(=O)Cc2ccccc2Cl)o1)N1CCN(c2ccccc2)CC1 (configuration not stated)	inactive
O=C1CCC(C(=O)OCC(=O)Nc2ccc(OC(F)F)cc2)=NN1	inactive
C=CCn1nc(C(=O)OCC)cc1-c1sc(NC(=O)c2ccccc2)nc1C	inactive
O[C@H]1C[C@H](c2ccc(Cl)cc2)N(Cc2cccs2)C[C@@H]1n1cc(C2CC2)nn1	inactive
O=C1C(=O)N(CCCN2CCOCC2)C(c2ccc([N+](=O)[O-])cc2)/C1=C(\O)c1ccc2c(c1)OCCO2 (configuration not stated)	inactive
COC(=O)C[C@H]1C[C@@H]2c3cc(N(C)C)ccc3O[C@@H]2[C@H](CO)O1	inactive
O=C1C(=O)N(CCN2CCOCC2)C(c2cccc(Cl)c2)/C1=C(/O)c1ccc2c(c1)OCO2 (configuration not stated)	active
Cc1ccc(C(=O)N[C@H](C(=O)N2CCN(c3ncccn3)CC2)C(C)C)cc1	inactive
COc1ccc(C2/C(=C(/O)c3ccc(OC(C)C)cc3)C(=O)C(=O)N2CCCN2CCOCC2)cc1 (configuration not stated)	inactive
O=C1CC[C@@H](C(=O)N2CSC[C@@H]2C(=O)Nc2ccc(C(F)(F)F)cc2)N1	inactive
Cc1csc(SCC(=O)Nc2ccc(C)c(S(=O)(=O)N(C)C)c2)n1	inactive
